B1: LINE1-full (parent)
chain: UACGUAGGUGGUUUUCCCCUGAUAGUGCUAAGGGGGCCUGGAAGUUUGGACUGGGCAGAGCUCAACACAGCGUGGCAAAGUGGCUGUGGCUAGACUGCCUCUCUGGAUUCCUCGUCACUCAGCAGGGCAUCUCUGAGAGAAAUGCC

- Variants of: B1
- test method notes: self-cleavage, relative activity (ratio to wild type); higher = more cleavage; in vitro, sequencing; the parent is a self-cleaving ribozyme

[
  {
    "variant id": "C37U U52C",
    "self-cleavage": 1.13
  },
  {
    "variant id": "G7A G127A",
    "self-cleavage": 1.3
  },
  {
    "variant id": "C37A U100A",
    "self-cleavage": 0.93
  },
  {
    "variant id": "G4A A94U",
    "self-cleavage": 0.27
  },
  {
    "variant id": "G33U U130A",
    "self-cleavage": 0.9
  },
  {
    "variant id": "U5C G105U",
    "self-cleavage": 1.32
  },
  {
    "variant id": "A6U U23C",
    "self-cleavage": 1.31
  },
  {
    "variant id": "U73A A78C",
    "self-cleavage": 2.67
  },
  {
    "variant id": "A50U C111U",
    "self-cleavage": 0.77
  },
  {
    "variant id": "C38A U104C",
    "self-cleavage": 0.82
  },
  {
    "variant id": "A57C G127A",
    "self-cleavage": 0.03
  },
  {
    "variant id": "U108C G139A",
    "self-cleavage": 0
  },
  {
    "variant id": "U20C U46A",
    "self-cleavage": 0.85
  },
  {
    "variant id": "A30U A121G",
    "self-cleavage": 1.08
  },
  {
    "variant id": "U14C G89U",
    "self-cleavage": 0.05
  },
  {
    "variant id": "A77U A121G",
    "self-cleavage": 1.6
  },
  {
    "variant id": "U87C G144A",
    "self-cleavage": 0.24
  },
  {
    "variant id": "A59G C118U",
    "self-cleavage": 0.02
  },
  {
    "variant id": "G8A",
    "self-cleavage": 1.45
  },
  {
    "variant id": "U130A U134A",
    "self-cleavage": 1.33
  },
  {
    "variant id": "C118A G125U",
    "self-cleavage": 1.03
  },
  {
    "variant id": "U91G A141G",
    "self-cleavage": 0.06
  },
  {
    "variant id": "A43G U47A",
    "self-cleavage": 0.96
  },
  {
    "variant id": "U45C U130G",
    "self-cleavage": 1.9
  },
  {
    "variant id": "G8A U12C",
    "self-cleavage": 1.17
  },
  {
    "variant id": "U47A A78U",
    "self-cleavage": 2.04
  },
  {
    "variant id": "U13C G114U",
    "self-cleavage": 1.65
  },
  {
    "variant id": "A78U U115C",
    "self-cleavage": 1.72
  },
  {
    "variant id": "A6U U100A",
    "self-cleavage": 0.52
  },
  {
    "variant id": "A31G G105U",
    "self-cleavage": 1.27
  },
  {
    "variant id": "U20C A79G",
    "self-cleavage": 1.5
  },
  {
    "variant id": "U91A U96A",
    "self-cleavage": 0.04
  },
  {
    "variant id": "A78U A92U",
    "self-cleavage": 1.02
  },
  {
    "variant id": "G27A A94U",
    "self-cleavage": 0.18
  },
  {
    "variant id": "U85A G93A",
    "self-cleavage": 0.05
  },
  {
    "variant id": "U14A A138U",
    "self-cleavage": 1.07
  }
]
